target: Hepatitis C virus serine protease, NS3/NS4A (Hepatitis C virus, UniProt D2K2A8+A3EZI9); assay: Inhibition of hepatitis C virus (HCV) NS3 protease.
Sequence (D2K2A8 whole entry): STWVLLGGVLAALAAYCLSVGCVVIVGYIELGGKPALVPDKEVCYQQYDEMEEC
Sequence (A3EZI9 whole entry): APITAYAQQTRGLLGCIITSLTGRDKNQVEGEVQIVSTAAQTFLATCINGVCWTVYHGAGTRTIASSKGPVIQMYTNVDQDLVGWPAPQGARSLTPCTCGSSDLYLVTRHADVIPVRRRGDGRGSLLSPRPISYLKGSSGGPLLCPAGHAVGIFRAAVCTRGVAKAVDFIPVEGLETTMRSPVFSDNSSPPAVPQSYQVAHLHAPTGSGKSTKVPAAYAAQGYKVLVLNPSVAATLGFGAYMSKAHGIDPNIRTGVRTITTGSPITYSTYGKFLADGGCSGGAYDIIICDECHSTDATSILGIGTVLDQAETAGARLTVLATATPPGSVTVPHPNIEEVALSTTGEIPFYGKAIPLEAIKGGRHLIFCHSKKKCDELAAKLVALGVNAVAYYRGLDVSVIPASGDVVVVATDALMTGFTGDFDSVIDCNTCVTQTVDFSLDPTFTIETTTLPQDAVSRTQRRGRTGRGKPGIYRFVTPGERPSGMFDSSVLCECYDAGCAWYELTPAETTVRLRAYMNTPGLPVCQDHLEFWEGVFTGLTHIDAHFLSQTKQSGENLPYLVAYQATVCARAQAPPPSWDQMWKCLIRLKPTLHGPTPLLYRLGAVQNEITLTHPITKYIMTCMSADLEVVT
pIC50: −log10 of the molar value.
quantity.name: pIC50

line.notation | pIC50
CCC[C@@H](NC(=O)[C@@H]1CCCN1C(=O)[C@@H](NC(=O)[C@@H](NC(=O)[C@@H](CC(=O)O)NC(=O)[C@H](CC(=O)O)NC(C)=O)[C@@H](C)CC)C(C)C)C(=O)OC | 4.77

P: CCC[C@@H](NC(=O)[C@@H]1CCCN1C(=O)[C@@H](NC(=O)[C@@H](NC(=O)[C@@H](CC(=O)O)NC(=O)[C@H](CC(=O)O)NC(C)=O)[C@@H](C)CC)C(C)C)C(=O)OCc1ccccc1
Q: CCC[C@@H](NC(=O)[C@@H]1CCCN1C(=O)[C@@H](NC(=O)[C@@H](NC(=O)[C@@H](CC(=O)O)NC(=O)[C@H](CC(=O)O)NC(C)=O)[C@@H](C)CC)C(C)C)C(=O)NC
R: CCC[C@@H](NC(=O)[C@@H]1CCCN1C(=O)[C@@H](NC(=O)[C@@H](NC(=O)[C@@H](CC(=O)O)NC(=O)[C@H](CC(=O)O)NC(C)=O)[C@@H](C)CC)C(C)C)C(=O)NCc1ccccc1
Ask: # desc sort on pIC50 across 3 compounds Reply with the labels, ordered as the question asks.
Result: P, R, Q

###

biological target: Pancreatic elastase (Sus scrofa, UniProt P08419+P00772); assay: Compound was tested for inhibition of porcine pancreatic elastase (PPE); format: protein assay
Square brackets hold non-standard residues; d marks the D form. Peptide text beside a SMILES is read from it. * marks the point of attachment. Nva = CCC[C@H](N)C(=O)O; CF3 = FC(F)(F)*
quantity.name: IC50

compound | measurement.target | reading
CCC[C@@H](NC(=O)[C@@H]1CCCN1C(=O)[C@@H](NC(=O)[C@@H](NC(=O)[C@@H](CC(=O)O)NC(=O)[C@H](CC(=O)O)NC(C)=O)[C@@H](C)CC)C(C)C)C(=O)OCc1ccccc1 | Pancreatic elastase (Sus scrofa, UniProt P08419+P00772) | > 1000 µM
CCC[C@H](NC(=O)[C@@H]1CCCN1C(=O)[C@@H](NC(=O)[C@@H](NC(=O)[C@H](CC(=O)O)NC(=O)[C@H](CC(=O)O)NC(C)=O)[C@@H](C)CC)C(C)C)C(=O)C(=O)NCc1ccccc1 | Pancreatic elastase (Sus scrofa, UniProt P08419+P00772) | < 0.06 µM
CCC[C@@H](NC(=O)[C@@H]1CCCN1C(=O)[C@@H](NC(=O)[C@@H](NC(=O)[C@@H](CC(=O)O)NC(=O)[C@H](CC(=O)O)NC(C)=O)[C@@H](C)CC)C(C)C)C(=O)NCc1ccccc1 | Pancreatic elastase (Sus scrofa, UniProt P08419+P00772) | 206 µM
CCC[C@@H](C=O)NC(=O)[C@@H]1CCCN1C(=O)[C@@H](NC(=O)[C@@H](NC(=O)[C@@H](CC(=O)O)NC(=O)[C@H](CC(=O)O)NC(C)=O)[C@@H](C)CC)C(C)C | Pancreatic elastase (Sus scrofa, UniProt P08419+P00772) | 2.2 µM
CCC[C@H](NC(=O)[C@@H]1CCCN1C(=O)[C@@H](NC(=O)[C@@H](NC(=O)[C@@H](CC(=O)O)NC(=O)[C@H](CC(=O)O)NC(C)=O)[C@@H](C)CC)C(C)C)C(=O)C(F)(F)C(F)(F)F | Pancreatic elastase (Sus scrofa, UniProt P08419+P00772) | < 0.06 µM

Ask: For the compound CCC[C@H](NC(=O)[C@@H]1CCCN1C(=O)[C@@H](NC(=O)[C@@H](NC(=O)[C@@H](CC(=O)O)NC(=O)[C@H](CC(=O)O)NC(C)=O)[C@@H](C)CC)C(C)C)C(=O)O (Ac-D[dD]IVP[Nva]-OH) , what IC50 is on record?
Result: > 1000 µM

Ask: Input "CCC[C@H](NC(=O)[C@@H]1CCCN1C(=O)[C@@H](NC(=O)[C@@H](NC(=O)[C@@H](CC(=O)O)NC(=O)[C@H](CC(=O)O)NC(C)=O)[C@@H](C)CC)C(C)C)C(=O)C(=O)NCc1ccccc1"
Result: < 0.06 µM

Ask: Input CCC[C@H](NC(=O)[C@@H]1CCCN1C(=O)[C@@H](NC(=O)[C@@H](NC(=O)[C@@H](CC(=O)O)NC(=O)[C@H](CC(=O)O)NC(C)=O)[C@@H](C)CC)C(C)C)C(=O)C(F)(F)F (Ac-D[dD]IVP[Nva]-CF3)
Result: 0.19 µM

Origin of the recorded values: ChEMBL document CHEMBL1130603
